Molecular target: T1, CGRP1 receptor (CRLR/RAMP1 complex) of human neuroblastoma SK-N-MC cells (human, UniProt Q16602 23-461; O60894 27-148)
T1 construct: whole, on cells
T1 sequence (Q16602 23-461, chain 1 of 2): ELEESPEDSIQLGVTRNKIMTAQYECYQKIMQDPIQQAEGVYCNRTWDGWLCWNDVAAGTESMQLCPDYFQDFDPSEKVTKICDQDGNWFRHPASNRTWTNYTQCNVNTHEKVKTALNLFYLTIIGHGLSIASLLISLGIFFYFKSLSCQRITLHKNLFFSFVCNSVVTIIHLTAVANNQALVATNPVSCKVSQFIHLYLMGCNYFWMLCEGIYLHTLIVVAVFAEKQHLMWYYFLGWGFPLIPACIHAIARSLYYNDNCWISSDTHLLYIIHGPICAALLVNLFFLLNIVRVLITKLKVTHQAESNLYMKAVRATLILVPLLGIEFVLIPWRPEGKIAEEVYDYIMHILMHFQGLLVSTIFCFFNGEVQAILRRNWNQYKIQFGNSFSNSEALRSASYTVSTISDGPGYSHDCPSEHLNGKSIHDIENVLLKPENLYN
T1 sequence (O60894 27-148, chain 2 of 2): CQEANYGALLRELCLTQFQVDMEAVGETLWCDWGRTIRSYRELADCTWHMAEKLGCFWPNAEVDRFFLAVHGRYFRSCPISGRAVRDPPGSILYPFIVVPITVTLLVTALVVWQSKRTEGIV
Experiment: 125I-hαCGRP competition, SK-N-MC membranes
Ends that are not written are not given here.
quantity: log10 Ki (log10 of the value in nM)

binder: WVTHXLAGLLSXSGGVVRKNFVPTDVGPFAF (Ac-WVTH(Cit)LAGLLS(Cit)SGGVVRKNFVPTDVGPFAF-NH2) [SEQ ID NO 31]
log10 Ki: -0.34

binder: C(MeO‑PEG 5 kDa)GGGGGGGWVTHRLAGLLSRSGGVVKNNFVPTDVGPFAF-NH2 [SEQ ID NO 697]
log10 Ki: 0.76

binder: VTHRLAGLLSRSGGVVC(MeO‑PEG 5 kDa)NNFVPTNVGSKAF-NH2 [SEQ ID NO 691]
log10 Ki: 2.20

binder: VTHRLAGLLSRSGGVVKCNFVPTNVGSKAF (VTHRLAGLLSRSGGVVKC^(5 kDa MeO-PEG)NFVPTNVGSKAF-amide) [SEQ ID NO 694]
log10 Ki: 1.50

binder: Ac-VTHRLAGLLSRSGGVVRKNFVPTDVGPFAF-NH2 [SEQ ID NO 6]
log10 Ki: -1.40

binder: CGGGGGGGFVPTDVGPFAF-NH2 [SEQ ID NO 721]
log10 Ki: 0.87
